- Tested on: Proteus vulgaris IFO 3167
Overview of reported MIC across a group of compounds:

- compound: "CCC1OC(=O)CC(O)C(C)C(OC2OC(C)C(OC3CC(C)(O)C(O)C(C)O3)C(N(C)C)C2O)C(CC=O)CC(C)C(=O)CC(Sc2ccc(Cl)cc2)C(C)=CC1COC1OC(C)C(O)C(OC)C1OC (stereo not drawn)"
  comparative-sign: "="
  MIC, µg/mL: 50
- compound: "CCC1OC(=O)CC(O)C(C)C(OC2OC(C)C(OC3CC(C)(O)C(O)C(C)O3)C(N(C)C)C2O)C(CC(Sc2ccccc2)Sc2ccccc2)CC(C)C(=O)C=CC(C)=CC1COC1OC(C)C(O)C(OC)C1OC (stereo not drawn)"
  comparative-sign: ">"
  MIC, µg/mL: 100
- compound: "CCC1OC(=O)CC(O)C(C)C(OC2OC(C)C(O)C(N(C)C)C2O)C(CC=O)CC(C)C(=O)CC(Sc2ccccc2)C(C)=CC1COC1OC(C)C(O)C(OC)C1OC (stereo not drawn)"
  comparative-sign: "="
  MIC, µg/mL: 50
- compound: "CCC1OC(=O)CC(O)C(C)C(OC2OC(C)C(OC3CC(C)(O)C(O)C(C)O3)C(N(C)C)C2O)C(CC=O)CC(C)C(=O)CC(Sc2ccc(N)cc2)C(C)=CC1COC1OC(C)C(O)C(OC)C1OC (stereo not drawn)"
  comparative-sign: ">"
  MIC, µg/mL: 100
- compound: "CCSC1CC(=O)C(C)CC(CC=O)C(OC2OC(C)C(O)C(N(C)C)C2O)C(C)C(O)CC(=O)OC(CC)C(COC2OC(C)C(O)C(OC)C2OC)C=C1C (stereo not drawn)"
  comparative-sign: ">"
  MIC, µg/mL: 100
- compound: "CCC1OC(=O)CC(O)C(C)C(OC2OC(C)C(OC3CC(C)(O)C(O)C(C)O3)C(N(C)C)C2O)C(CC=O)CC(C)C(=O)CC(Sc2ccc(OC)cc2)C(C)=CC1COC1OC(C)C(O)C(OC)C1OC (stereo not drawn)"
  comparative-sign: "="
  MIC, µg/mL: 50

----------
- Test system: Staphylococcus aureus KB 224 (MC, TC, KM, SM^r)
- procedure-text: Minimum inhibitory concentration against resistant strain Staphylococcus aureus KB 224
- Format: cell-based

- molecule: "CCC1OC(=O)CC(O)C(C)C(OC2OC(C)C(OC3CC(C)(O)C(O)C(C)O3)C(N(C)C)C2O)C(CC=O)CC(C)C(=O)CC(Sc2ccccc2)C(C)=CC1COC1OC(C)C(O)C(OC)C1OC (stereo not shown) [Compound S, 10,11-Dihydro-11-(phenylthio)tylosin]"
  MIC (µg/mL): 50
- molecule: "CCC1OC(=O)CC(O)C(C)C(OC2OC(C)C(OC3CC(C)(O)C(O)C(C)O3)C(N(C)C)C2O)C(CC=O)CC(C)C(=O)CC(Sc2ccc(OC)cc2)C(C)=CC1COC1OC(C)C(O)C(OC)C1OC (stereo not shown)"
  MIC (µg/mL): 50
- molecule: "CCC1OC(=O)CC(O)C(C)C(OC2OC(C)C(OC3CC(C)(O)C(O)C(C)O3)C(N(C)C)C2O)C(CC=O)CC(C)C(=O)CC(Sc2ccc(N)cc2)C(C)=CC1COC1OC(C)C(O)C(OC)C1OC (stereo not shown)"
  MIC (µg/mL): 25
- molecule: "CCC1OC(=O)CC(O)C(C)C(OC2OC(C)C(OC3CC(C)(O)C(O)C(C)O3)C(N(C)C)C2O)C(CC=O)CC(C)C(=O)CC(Sc2ccc(Cl)cc2)C(C)=CC1COC1OC(C)C(O)C(OC)C1OC (stereo not shown)"
  MIC (µg/mL): 25
